Tested on: TK-10 renal
procedure_details: NCI tumour cell line growth inhibition, 48 h
Measured TGI values are reported for all entries that follow.

>  <compound>
C/C=C(\C)C(=O)OC1C(C)=C2C(C1OC(=O)CCCC)C(C)(OC(C)=O)CC(OC(=O)CCCC)C1(O)C2OC(=O)C1(C)O (stereo not given)

>  <TGI>
> 100 µM

$$$$
>  <compound>
Oc1ccccc1C=Nc1nc(SCc2ccccc2)nc2[nH]ncc12

>  <TGI>
> 100 µM

$$$$
>  <compound>
CCC[CH2][Sn]([CH2]CCC)([CH2]CCC)[O]C(=O)c1ccc(Cl)cc1Cl

>  <TGI>
0.267 µM

$$$$
>  <compound>
CC(C)(C)OC(=O)N1CCC2(C)CC(=O)CC=C12 (stereo not given)

>  <TGI>
> 100 µM

$$$$
>  <compound>
COC(=O)NC12CC3CC(CC(F)(C3)C1)C2

>  <TGI>
> 100 µM

$$$$

The reported measurements were obtained from PubChem BioAssay (NCI).
